Below is a list of entries, each paired with its recorded pIC50 value.
study_system: LMPTP-A (Low Molecular Weight Protein Tyrosine Phosphatase-A) enzyme (Homo sapiens (Human), UniProt P24666)
Sequence (P24666 whole entry): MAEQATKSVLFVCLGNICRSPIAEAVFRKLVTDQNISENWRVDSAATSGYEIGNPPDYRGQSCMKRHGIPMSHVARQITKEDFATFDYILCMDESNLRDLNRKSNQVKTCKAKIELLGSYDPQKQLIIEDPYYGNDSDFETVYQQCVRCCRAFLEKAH
measurement_notes: LMPTP primary screening / LMPTP (OMFP) enzyme inhibition assay, fluorescence intensity
Format: biochemical
measurement_context: LMPTP-A, OMFP substrate, method of Example 2; read-out: IC50
pIC50: −log10 of the molar value.

COc1ccc(-c2cc(Nc3cccc(CC4CCN(C(C)=O)CC4)c3)c3ccccc3n2)cc1: 6.10 to 6.70
C[N+]1(C)CCC(Cc2ccccc2Nc2cc(-c3cc(C(F)(F)F)cc(C(F)(F)F)c3)nc3ccccc23)CC1: < 5.30
N#Cc1cccc(Nc2cc(-c3ccccc3C(F)(F)F)nc3ccccc23)c1: 5.30 to 6.10

Recorded pIC50 for COc1ccc(-c2cc(Nc3cncc(C)n3)c3ccccc3n2)cc1 , please?
5.30 to 6.10

Check COc1ccc(-c2cc(Nc3cncnc3)c3ccccc3n2)cc1 too.
5.30 to 6.10

Further, for COc1ccc(-c2cc(NC(C)c3ccccc3)c3ccccc3n2)cc1 (stereo not shown) ?
5.30 to 6.10

Entry CCN(CC)S(=O)(=O)c1ccccc1-c1cc(NCCCN2CCCCC2)c2ccccc2n1 please
< 5.30

Repeat for the following molecule: O=C1Cc2ccc(-c3cc(NCCCN4CCCCC4)c4ccccc4n3)cc2N1
5.30 to 6.10

Entry FC(F)(F)Oc1ccccc1-c1cc(NCCCC2CCCNC2)c2ccccc2n1 (stereo not shown) please
6.10 to 6.70
